Readings of MIC for the listed molecules
# Test system: Klebsiella pneumoniae
# test-method-notes: Broth microdilution MIC (Example 11)
# condition: K. pneumoniae MMX 4653, KPC-3, Lev^R, MEM^R, CAZ^R
Give the value in µg/mL but do not write µg/mL after it.

[
  {
    "molecule": "C[C@H]1COc2c(N3CCN(C)CC3)c(F)cc3c(=O)c(C(=O)O)cn1c23 [Levofloxacin, reference compound]",
    "MIC, µg/mL": 64
  }
]

Turning now to a further record.
Input: Report MIC for CC(S)C(C)S.[Bi] (stereo not shown) [BisBDT, bismuth-2,3-butanedithiol] tested on Klebsiella pneumoniae.
Output: 2
